Assign pIC50 to each entry below.
Scale: negative log10 of molar concentration, which is what pIC50 denotes.

For BACE-1 (Homo sapiens, UniProt P56817), give pIC50 of the listed compound: N[C@@H](CCC(=O)NNc1ccccc1F)C(=O)O
4.73

Give measured pIC50 for Cc1ccc(NNC(=O)CC[C@H](N)C(=O)O)cc1 (BACE-1 (Homo sapiens, UniProt P56817)).
4.89

Provide the reported pIC50 (system: BACE-1 (Homo sapiens, UniProt P56817)) for Cc1ccc(NNC(=O)CC[C@H](N)C(=O)O)cc1C [RA-34Me]
Sequence (P56817 46-501): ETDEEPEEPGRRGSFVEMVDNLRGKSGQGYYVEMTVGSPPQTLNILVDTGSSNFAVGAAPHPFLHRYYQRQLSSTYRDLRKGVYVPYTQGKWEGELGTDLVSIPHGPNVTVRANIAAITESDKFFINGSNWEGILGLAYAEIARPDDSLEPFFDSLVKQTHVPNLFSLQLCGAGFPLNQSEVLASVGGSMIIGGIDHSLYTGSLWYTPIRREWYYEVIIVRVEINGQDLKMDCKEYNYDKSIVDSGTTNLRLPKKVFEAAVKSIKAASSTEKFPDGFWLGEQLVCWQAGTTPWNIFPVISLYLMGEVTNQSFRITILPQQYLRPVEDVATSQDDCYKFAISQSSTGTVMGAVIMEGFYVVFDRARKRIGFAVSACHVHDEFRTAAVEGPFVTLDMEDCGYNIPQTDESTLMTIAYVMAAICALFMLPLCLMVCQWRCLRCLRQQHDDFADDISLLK
4.88

GET pIC50 where system = BACE-1 (Homo sapiens, UniProt P56817) and item = Cc1ccccc1NNC(=O)CC[C@H](N)C(=O)O
4.82

Recall the reported pIC50 of Cc1ccc(C)c(NNC(=O)CC[C@H](N)C(=O)O)c1 [RA-25Me] when tested on BACE-1 (Homo sapiens, UniProt P56817).
5.01
